Values from ChEMBL document CHEMBL1128992

Target: Substance-K receptor (Homo sapiens)
Sequence (P21452 whole entry): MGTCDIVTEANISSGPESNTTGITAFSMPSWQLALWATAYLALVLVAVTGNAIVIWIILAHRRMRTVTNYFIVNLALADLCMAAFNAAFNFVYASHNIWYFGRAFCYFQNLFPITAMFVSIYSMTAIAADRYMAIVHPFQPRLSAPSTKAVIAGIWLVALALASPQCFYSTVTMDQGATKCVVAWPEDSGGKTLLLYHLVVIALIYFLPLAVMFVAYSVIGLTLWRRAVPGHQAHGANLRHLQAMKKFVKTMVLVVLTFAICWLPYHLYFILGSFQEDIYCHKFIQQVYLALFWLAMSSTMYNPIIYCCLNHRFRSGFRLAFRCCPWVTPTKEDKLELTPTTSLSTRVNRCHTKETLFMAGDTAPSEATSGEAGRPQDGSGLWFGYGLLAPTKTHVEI
Experiment: Binding affinity was determined against human NK2 receptor in CHO cells using [125I]neurokinin A as radioligand
IC50 values for the compounds below.
Write it as a number; the unit nM goes unstated.

{"columns": ["compound", "system_under_test", "scale_unit", "IC50"],
 "data": [
  ["CN(CC(CCN1CCC(O)(c2ccccc2)CC1)c1ccc(Cl)c(Cl)c1)C(=O)c1cccc(C2(C(F)(F)F)N=N2)c1 (racemic)", "Substance-K receptor (Homo sapiens)", "nM", 6.7]
]}

// moving on: another record for IC50
Please tell me: IC50 of CC(=O)NC1(c2ccccc2)CCN(CC[C@H](CN(C)C(=O)c2ccccc2)c2ccc(Cl)c(Cl)c2)CC1 (racemic) , system Substance-K receptor (Homo sapiens)? 0.8
